Recorded Agonist, % of NDP-MSH maximal response for the following binders
TESTED ON: mouse melanocortin-5 receptor (mouse, UniProt P41149 1-325)
Sequence (P41149 whole entry): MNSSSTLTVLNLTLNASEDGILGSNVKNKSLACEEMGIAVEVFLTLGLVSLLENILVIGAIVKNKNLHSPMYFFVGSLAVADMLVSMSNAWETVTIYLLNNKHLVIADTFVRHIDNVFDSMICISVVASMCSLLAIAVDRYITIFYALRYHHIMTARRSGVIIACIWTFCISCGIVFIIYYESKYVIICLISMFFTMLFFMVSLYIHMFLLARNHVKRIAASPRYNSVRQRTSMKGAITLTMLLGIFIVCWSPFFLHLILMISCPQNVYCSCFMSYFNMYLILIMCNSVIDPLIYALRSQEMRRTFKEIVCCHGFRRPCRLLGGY
EXPERIMENT NOTES: cell-based or functional assay
Square brackets hold non-standard residues; d marks the D form. Bip = N[C@@H](Cc1ccc(-c2ccccc2)cc1)C(=O)O; dPhe(4-I) = N[C@H](Cc1ccc(I)cc1)C(=O)O; 2Nal = N[C@@H](Cc1ccc2ccccc2c1)C(=O)O; d2Nal = N[C@H](Cc1ccc2ccccc2c1)C(=O)O; Bta = N[C@@H](Cc1csc2ccccc12)C(=O)O; Tic = O=C(O)[C@@H]1Cc2ccccc2CN1
Report only the number, with the unit % @ 100 µM understood.

| BINDER | ASSAY RESULT |
| --- | --- |
| Ac-[Bta]R[dPhe(4-I)][2Nal]-NH2 [SKY4-48-37, Ac-3Bal-Arg-(pI)DPhe-Nal(2')-NH2] | 50 |
| Ac-FR[dPhe(4-I)]F-NH2 (SMILES CC(=O)N[C@@H](Cc1ccccc1)C(=O)N[C@@H](CCCNC(=N)N)C(=O)N[C@H](Cc1ccc(I)cc1)C(=O)N[C@@H](Cc1ccccc1)C(N)=O) [SKY4-48-31, Ac-Phe-Arg-(pI)DPhe-Phe-NH2] | 52 |
| Ac-[Bip]R[dPhe(4-I)][d2Nal]-NH2 [SKY4-48-44, Ac-Bip-Arg-(pI)DPhe-DNal(2')-NH2] | 55 |
| Ac-[d2Nal]R[dPhe(4-I)][2Nal]-NH2 [SKY5-146-5, Ac-DNal(2')-Arg-(pI)DPhe-Nal(2')-NH2] | 40 |
| Ac-[2Nal]R[dPhe(4-I)][2Nal]-NH2 [SKY4-48-40, Ac-Nal(2')-Arg-(pI)DPhe-Nal(2')-NH2] | 45 |

Please look at the following binder next.
*Q* Reported Agonist, % of NDP-MSH maximal response for Ac-[Tic]R[dPhe(4-I)][2Nal]-NH2 [SKY4-48-38, Ac-Tic-Arg-(pI)DPhe-Nal(2')-NH2] : what is it?
*A* 48
